All figures here come from patent US7186862B2.

logP (pH 2.3) by entry:
measurement.protocol: logP determination by HPLC on reversed-phase column (EEC Directive 79/831)
Assay type: physicochemical
particulars: reversed-phase C18, 43° C., 0.1% aqueous phosphoric acid/acetonitrile gradient
recorded.endpoint: logP (pH 2.3)

[[record]]
smi = "O=C(Nc1ccccc1-c1ccc(C(F)(F)F)cc1)c1ccccc1I"
data_value = 4.03

[[record]]
smi = "O=C(Nc1ccccc1-c1cc(Cl)cc(Cl)c1)c1ccccc1C(F)(F)F"
data_value = 4.16

[[record]]
smi = "O=C(Nc1ccc(F)cc1-c1ccc(Cl)c(Cl)c1)c1ccccc1C(F)(F)F"
data_value = 4.11

[[record]]
smi = "O=C(Nc1ccccc1-c1ccc(F)cc1F)c1ccccc1C(F)(F)F"
data_value = 3.41

[[record]]
smi = "O=C(Nc1ccccc1-c1ccc(C(F)(F)F)cc1)c1ccccc1Cl"
data_value = 3.89

